Reference source: ChEMBL document CHEMBL1201862

- Tested on: Malme-3M
- Experimental Details: NCI tumour cell line growth inhibition, 48 h
Active and inactive are the calls of the source. Cut-off read from the data, not from the text of the source: active = GI50 up to about 1.1 µM and inactive = higher.
Would you mind answering with one of these outcomes? 1 = active, -1 = inactive

Data request: Tell me the assay call for `CCN(CC)c1c(C(C)(C)C)c(=O)n2ccsc2c1OC(C)=O` please.
Data returned: -1

Data request: Tell me the assay call for `N#Cc1sc2nc3ccccc3n2c1N` please.
Data returned: -1

Data request: Tell me the assay call for `C1=CC=C2NCCCCCC/N=C3\C=CC=CC=C3NCCc3cccc(c3)CC/N=C/2C=C1` please.
Data returned: -1

Data request: Tell me the assay call for COc1cc2c(c(OC)c1OC)-c1ccc(OC)c(=O)cc1C(NC(=O)CCCCCNc1ccc(N=[N+]=[N-])cc1[N+](=O)[O-])CC2 (stereo unspecified) please.
Data returned: 1

Data request: Tell me the assay call for `Oc1c(N2CCCCC2)cc(-c2cc(N3CCCCC3)c(O)c3ccccc23)c2ccccc12` please.
Data returned: -1

Data request: Tell me the assay call for COC1(OC)N=C(N)C2(C#N)C(C)CC(=O)N(N(C)C)C12C#N (stereo unspecified) please.
Data returned: -1

Data request: Tell me the assay call for `COc1ccc2c(c1)C(=O)c1ccc(OC)cc1C2=S` please.
Data returned: -1

Data request: Tell me the assay call for COc1cc(/C=C2\NC(=S)C3Cc4c(OC)c(C)c(OC)c(OC)c4C2N3C)c(OC)c(C)c1OC (stereo unspecified) please.
Data returned: -1

Data request: Tell me the assay call for O=[N+]([O-])c1ccc(N2N=C(c3ccc4ccccc4c3O)CC2c2ccc(Cl)cc2)c([N+](=O)[O-])c1 (stereo unspecified) please.
Data returned: -1

Data request: Tell me the assay call for `NC(S)=Nc1cc(Cl)ccc1Cl` please.
Data returned: -1

Data request: Tell me the assay call for `O=C(N/N=C\C(F)(F)F)c1ccncc1` please.
Data returned: -1

Data request: Tell me the assay call for `C=C(C)[C@@H]1CCc2c(c(C)cc(O)c(=O)c2O)C1` please.
Data returned: -1

Data request: Tell me the assay call for COc1cc2cc3c4cc(OC)c(OC)cc4cc[n+]3c(C)c2cc1OC [CORALYNE] please.
Data returned: -1

Data request: Tell me the assay call for `COc1ccc(/C(Cl)=C(/c2ccc(O)cc2)c2ccc(OCCN(C)C)cc2)cc1` please.
Data returned: -1

###

- System: SK-MEL-2
- Experimental Details: NCI tumour cell line growth inhibition, 48 h
Calls of active or inactive are those of the source. Rule as the data show it: active = GI50 up to about 1.1 µM and inactive = higher.
Readout Type: GI50

Example results:
> print(dat)
                                   compound  study.target  readout.type          test.result
1  NNC(=O)c1ccccc1NC(=O)/C(=C/c1ccccc1)NC(=O)c1ccccc1      SK-MEL-2          GI50  > 100 µM (inactive)
2        COc1ccc2nc(C(=O)c3ccccc3)c(C)cc2c1      SK-MEL-2          GI50   6.27 µM (inactive)
3  O=C1c2ccccc2CC12Cc1ccc3c(c1C2=O)CCCC3 (stereo unspecified)      SK-MEL-2          GI50  > 100 µM (inactive)
4  N#Cc1ccc(/C=N/NC(=O)CSCC(=O)N/N=C/c2ccc(C#N)cc2)cc1      SK-MEL-2          GI50  > 100 µM (inactive)
5            Cc1cc2c(c(C#N)c1C)NC(=O)CCC2=O      SK-MEL-2          GI50  > 100 µM (inactive)

For reference, reported GI50 for `COc1cc2c3c([nH]c2c(OC)c1OC)CCN(Cc1ccccc1)C3` stands at 22.6 µM (inactive)
